Parameter 'readout' = pIC50; parameter 'system' = 3',5'-cyclic-AMP phosphodiesterase 4B (Homo sapiens, UniProt Q07343).
Sequence (Q07343 whole entry): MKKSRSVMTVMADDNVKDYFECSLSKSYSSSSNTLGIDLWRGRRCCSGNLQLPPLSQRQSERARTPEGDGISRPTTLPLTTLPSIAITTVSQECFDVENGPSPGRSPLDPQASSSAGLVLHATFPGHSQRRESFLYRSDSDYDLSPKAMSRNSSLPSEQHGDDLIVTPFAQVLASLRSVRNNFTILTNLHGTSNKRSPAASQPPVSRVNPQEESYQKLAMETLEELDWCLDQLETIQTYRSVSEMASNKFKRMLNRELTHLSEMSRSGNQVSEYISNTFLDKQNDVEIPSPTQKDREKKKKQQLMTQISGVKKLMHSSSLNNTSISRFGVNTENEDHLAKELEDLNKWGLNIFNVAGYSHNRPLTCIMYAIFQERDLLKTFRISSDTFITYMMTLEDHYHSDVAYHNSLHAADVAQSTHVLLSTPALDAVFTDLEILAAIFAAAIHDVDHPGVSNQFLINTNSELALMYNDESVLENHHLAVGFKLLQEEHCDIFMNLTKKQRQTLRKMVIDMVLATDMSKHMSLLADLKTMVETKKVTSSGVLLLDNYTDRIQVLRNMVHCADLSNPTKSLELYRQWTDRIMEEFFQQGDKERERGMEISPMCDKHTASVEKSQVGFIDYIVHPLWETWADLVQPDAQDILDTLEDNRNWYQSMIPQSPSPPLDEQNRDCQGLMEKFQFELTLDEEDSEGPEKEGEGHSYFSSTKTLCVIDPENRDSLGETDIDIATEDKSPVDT
# pIC50 is unitless: minus log10 of the molar concentration; print number only

Example cases with answers are listed next.
>>> val("COc1ccc(C2=NN(CCCCOc3ccc(C4=NNC(=O)CC4C)cc3)C(=O)CC2C)c2cc(C(F)(F)F)nn12 (centres undefined)")
9.52
>>> val("COc1ccc(C2=NN(CCCCOc3cccc(C4=NNC(=O)C4(C)C)c3)C(=O)CC2C)c2cc(C(F)(F)F)nn12 (centres undefined)")
10.19
>>> val("COc1ccc(C2=NN(CCCCOc3ccc(C4=NNC(=O)C4(C)C)cc3)C(=O)CC2C)c2cc(C(F)(F)F)nn12 (centres undefined)")
9.30

Pending compound:
COc1ccc(C2=NN(CCCCCOc3ccc(C4=NNC(=O)CC4C)cc3)C(=O)CC2C)c2cc(C(F)(F)F)nn12 (centres undefined) on 3',5'-cyclic-AMP phosphodiesterase 4B (Homo sapiens, UniProt Q07343) gives pIC50 = 9.70
